Source listed as patent US9284298B2.

molecular target: MPS1 (Homo sapiens (Human), UniProt P33981); experiment: Biochemical assay for inhibitors of MPS1 kinase activity (trans-phosphorylation, Dowex); details: 15 μM ATP, P38-tide substrate
Sequence (P33981 2-857): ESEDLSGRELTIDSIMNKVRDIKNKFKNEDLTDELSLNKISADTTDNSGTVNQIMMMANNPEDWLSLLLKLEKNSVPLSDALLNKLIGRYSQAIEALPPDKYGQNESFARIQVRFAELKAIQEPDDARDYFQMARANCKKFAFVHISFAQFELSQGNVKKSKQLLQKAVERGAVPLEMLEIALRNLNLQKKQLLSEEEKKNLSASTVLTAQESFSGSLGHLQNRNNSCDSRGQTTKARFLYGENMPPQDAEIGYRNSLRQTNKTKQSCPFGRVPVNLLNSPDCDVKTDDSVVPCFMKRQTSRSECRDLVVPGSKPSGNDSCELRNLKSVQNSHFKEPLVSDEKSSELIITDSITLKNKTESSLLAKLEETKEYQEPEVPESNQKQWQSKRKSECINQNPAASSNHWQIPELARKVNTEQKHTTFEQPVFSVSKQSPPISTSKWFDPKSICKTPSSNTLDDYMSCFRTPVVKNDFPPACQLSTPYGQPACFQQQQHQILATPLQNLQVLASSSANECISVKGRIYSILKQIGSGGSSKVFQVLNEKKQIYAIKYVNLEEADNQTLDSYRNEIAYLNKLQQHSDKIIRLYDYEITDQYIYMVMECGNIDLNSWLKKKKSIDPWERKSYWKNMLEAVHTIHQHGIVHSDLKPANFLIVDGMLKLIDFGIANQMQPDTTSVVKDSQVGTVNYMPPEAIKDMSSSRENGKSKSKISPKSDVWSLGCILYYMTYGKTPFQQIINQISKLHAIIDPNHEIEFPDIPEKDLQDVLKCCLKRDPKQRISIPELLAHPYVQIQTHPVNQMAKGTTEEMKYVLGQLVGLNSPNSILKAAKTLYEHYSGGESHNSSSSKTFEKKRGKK
Quick reference for IC50 among some molecules

{"columns": ["molecule", "IC50"],
 "data": [
  ["CCc1cccc(CC)c1NC(=O)c1cc(-c2ccnc(Nc3ccc(N4CCN(CCO)CC4)cc3OC)n2)n(C)n1 [Compound 8]", "< 200 nM"],
  ["CCc1cccc(CC)c1NC(=O)c1cc(-c2ccnc(Nc3ccc(N4CCN(CCO)CC4)cc3OC)n2)[nH]n1 [Compound 13]", "< 200 nM"],
  ["CCc1cccc(CC)c1NC(=O)c1cc(-c2ccnc(Nc3ccc(N4CCN(C)CC4)cc3OC)n2)n(C)n1 [Compound 3]", "< 200 nM"],
  ["CCc1cccc(CC)c1NC(=O)c1cc(-c2ccnc(Nc3ccc(N4CCN(C)CC4)cc3OC)n2)[nH]n1 [Compound 11]", "< 200 nM"]
]}
